Tested on: 786-0 renal
Test: NCI-60 one-dose screen, 48 h (100 = growth as untreated, 0 = no growth, -100 = all killed)
Details: 10 µM unless noted
This is part of a sample that, as a whole, favours compounds with a hit. Of some 83,000 tested, about 20% had one in any assay.
ENDPOINT: growth (%)
Answer format: numeric, % implied, no suffix.

Sample answers from the record:
COMPOUND	UNITS OF MEASURE	growth
O=C(Nc1ccc2ccccc2c1)c1cc2ccccc2cc1O	%	85.6
CCOC(=O)c1ccc(Nc2ncnc3c2cnn3-c2cccc(F)c2)cc1	%	104
Cc1ccc(C(=O)Nc2ccc(CN3CCN(C)CC3)c(C(F)(F)F)c2)cc1C#Cc1cnc(N)cc1C#N	%	-73.8
C[C@]12CCc3c(ccc4cc(O)ccc34)[C@@H]1C[C@H](O)[C@@H]2O	%	111

We now examine a further compound.
For reference, reported growth for CCN1C(=S)N(CC)C2C1NC(=S)N2/N=C/C=C/c1ccccc1 (stereo not given) stands at 40.9

###

Test system: COLO 205 colon
Assay: NCI-60 one-dose screen, 48 h
Conditions: 10 µM unless noted
This is part of a sample that, as a whole, favours compounds with a hit. Of some 83,000 tested, about 20% had one in any assay. The source made the active and inactive calls. The calls were made as follows: active = growth percent below 10; inactive = the rest.
// one of y for active, n for inactive, no free text

Completed entries (count: 4):
COMPOUND	DISCRETE LABEL
Cc1nc2sc(C(=O)Nc3cccc4ncccc34)c(N)c2cc1C(C)O (stereo unspecified)	n
COc1cc(CO)cc2cc3ccccc3nc12	n
CCN(CC)CCCN1C(=O)c2c(c(C)c3c(oc4cc(OC)ccc43)c2C)C1=O	n
COc1ccc(-c2nc(Cl)c3c(C)nn(-c4ccc(F)cc4)c3n2)cc1	n

Hello, I am checking results. What call was entered for COc1ccc(-c2nnc3n(C)c(=O)c4ccccc4n23)cc1O ?
n

Hello, I am checking results. What call was entered for COCCn1cc(-c2nc(-c3cn(CCOC)c4ncccc34)cs2)c2ccccc21 ?
n

###

Test system: IGROV1 ovarian
Experiment: NCI-60 one-dose screen, 48 h
Details: 10 µM unless noted
Compounds without any hit were thinned out: in the full panel of roughly 83,000, 20% have a hit. Active and inactive are the calls of the source. The calls were made as follows: active = growth percent below 10; inactive = the rest.
// one of active, inactive, no free text

MOLECULE	MEASURED TARGET	DISCRETE LABEL
COc1cc2c(cc1OCCCOC1=C=C=C(c3ccc4c(c3)c3cc(-c5ccc(OCCCOc6cc7c(cc6OC)C(=O)N6CCC[C@H]6C=N7)cc5)ccc3n4S(=O)(=O)c3ccc(C)cc3)C=C1)N=C[C@@H]1CCCN1C2=O	IGROV1 ovarian	inactive
O=c1c(/C=C/c2ccco2)nnc2sc(Nc3ccc(Cl)cc3)nn12	IGROV1 ovarian	inactive
Cc1ccc(S(=O)(=O)OC[C@@]2(C)CC[C@]3(C)CC[C@]4(C)C(=C3C2)C=C[C@@H]2[C@@]3(C)CCCNC(C)(C)[C@@H]3CC[C@]24C)cc1	IGROV1 ovarian	active
O=c1oc2c(Br)cc(Br)cc2cc1-c1cc(-c2ccc(-c3cc(-c4cc5cc(Br)cc(Br)c5oc4=O)nc(-c4cc5cc(Br)cc(Br)c5oc4=O)c3)cc2)cc(-c2cc3cc(Br)cc(Br)c3oc2=O)n1	IGROV1 ovarian	inactive
COc1ccc(C2Nc3nc(SC)nc(N)c3N=C3c4ccccc4CCC32)cc1 (stereo not given)	IGROV1 ovarian	inactive
COc1ccc(-c2nnc3n(C)c(=O)c4ccccc4n23)cc1O	IGROV1 ovarian	inactive
C=C(CN1CC=CCC1)[C@@H]1CC[C@]2(COC(C)=O)CC[C@]3(C)[C@H](CC[C@@H]4[C@@]5(C)CC[C@H](O)C(C)(C)[C@@H]5CC[C@]43C)[C@@H]12	IGROV1 ovarian	inactive
O=C([C@H]1C[C@H]1c1ccc(S(F)(F)(F)(F)F)cc1)N1CCN(c2cc(Cl)ccc2C(F)(F)F)CC1	IGROV1 ovarian	inactive
COc1ccc(/C=N/C2=C(C#N)C(c3ccccc3)c3c(ccc4ccccc34)O2)cc1 (stereo not given)	IGROV1 ovarian	inactive
COc1ccc(Cl)cc1Nc1nc(C(F)(F)F)ccc1C(=O)N/N=C/c1ccc(N(C)C)cc1	IGROV1 ovarian	inactive

Hello, I am checking results. What call was entered for O=C1N=c2ccccc2=C1c1sc(=S)n(C2CC(=O)N(c3ccc(Cl)cc3)C2=O)c1O (stereo not given) ?
inactive

Hello, I am checking results. What call was entered for CC1=C2[C@@H](CC1)[C@]1(C)O[C@@](C(C)C)(C[C@H]1OC(=O)CO)[C@H]2OC(=O)C1CC1c1ccccc1 (stereo not given in full) ?
inactive

Hello, I am checking results. What call was entered for C=C(C)[C@@H]1CC[C@]2(C)[C@H](CC(=O)N[C@H]3[C@@H]4C[C@](C)(C(=O)OC)CC[C@]4(C)CC[C@]32C)[C@@]1(C)CCC#N ?
inactive

Hello, I am checking results. What call was entered for COc1ccc2c(c1)oc1c(C)c3c(c(C)c12)C(=O)N(Nc1ccccc1)C3=O ?
inactive

Hello, I am checking results. What call was entered for Clc1ccc2c(c1)N(c1ncnc3ccc(-c4cnc5[nH]ccc5c4)cc13)CC2 ?
active
